Test system: KYSE-520 cell line
Assay: Growth inhibition against human KYSE-520 cell lines
Format: functional, cell-based
Conditions: kyse-520
outcome_measure: pIC50
Please treat pIC50 as minus the base-10 logarithm of the molar concentration.

Q: For KYSE-520 cell line, provide pIC50 of `CISPLATIN` please.
Result: 5.29

* * *

System: TERT-RPE1
Assay: Compound was tested for growth inhibition against human h-TERTRPE1 cell lines
Format: functional, cell-based
Details: Homo sapiens, RPE-1
As shown below, each of these compounds has a reported log10 IC50 value.
Note the log scale: values are log10 of IC50 expressed in nM.

Example entries and their recorded answers appear below.
>  <compound>
O=[N+]([O-])c1ccc(/C=C/c2nc3ccccc3[nH]2)s1

>  <log10 IC50>
2.32

$$$$
>  <compound>
N#C/C(=C\c1ccc([N+](=O)[O-])o1)c1nc2ccccc2[nH]1

>  <log10 IC50>
2.78

$$$$

Q: Find the recorded log10 IC50 belonging to `Cc1n[nH]c(/C(C#N)=C/c2ccc([N+](=O)[O-])o2)n1` and report it.
Result: 2.84

Q: Same for `N#C/C(=C\c1ccc([N+](=O)[O-])s1)c1n[nH]c(-c2ccccc2)n1`
Result: 2.62

Q: Next compound up: `N#C/C(=C\c1ccc([N+](=O)[O-])o1)c1n[nH]c(-c2ccccc2)n1`
Result: 3.06

Q: Moving on to `N#C/C(=C\c1ccc([N+](=O)[O-])o1)c1n[nH]c(Cc2ccccc2)n1`
Result: 2.62
